Data credit: PubChem BioAssay AID651784

- ASSAY_PROTOCOL: Acumen qHTS Assay for Inhibitors of the mTORC1 Signaling Pathway in MEF (Tsc2-/-, p53-/-) Cells: Hit Validation;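 further: phospho-rpS6 Ser235/236 immunofluorescence normalized to propidium iodide cell count; nearly all actives have a fitted effect of over 65% in size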; further: potency means the concentration at half of the fitted maximal effect
- CONDITION: Acumen imaging
- Description: The mammalian target of rapamycin (mTOR) is an intracellular serine/threonine kinase Aberrant regulation of mTOR signaling plays a causative role in a number of human diseases, including cancer, benign tumors such as lymphangioleiomyomatosis (LAM) and Tuberous Sclerosis Complex (TSC), and metabolic diseases such as diabetes and obesity. This project aims to identify inhibitors of ribosomal protein S6 (rpS6) phosphorylation. The phosphorylation of rpS6 is a key event downstream of mTOR activation. […]
Results filed as inconclusive are left out. Active and inactive are the calls of the source. The call rests on the fitted dose curve; in most records, active means well fitted inhibition curve with a large enough effect; inconclusive means small, poorly fitted or top-dose-only effect; inactive means no such curve, though single readings can be large or run the other way.
OBSERVATION_TYPE: Potency

Record Potency for all entries; do not skip any.
1. COc1ccc(OC)c(NC(=O)c2nc(S(=O)(=O)Cc3ccc(F)cc3)ncc2Cl)c1
2. CC(C)S(=O)(=O)c1oc(-c2cccs2)nc1S(=O)(=O)c1ccc(F)cc1
3. CCOc1ccc(NC(=O)CSc2oc(-c3ccc(F)cc3)nc2S(=O)(=O)c2ccc(C)cc2)cc1
4. CCS(=O)(=O)c1ncc(Cl)c(C(=O)NCc2ccc(OC)cc2)n1

Ans.
1. 2.07 µM (active)
2. 0.736 µM (active)
3. 4.65 µM (active)
4. 6.56 µM (active)

Record Potency for all entries; do not skip any.
1. COc1ccc(CC(=O)Nc2sc3c(c2C(=O)Nc2cccc(C)c2)CCCCC3)cc1
2. COc1ccc(CNC(=O)c2cccc(N3CCCS3(=O)=O)c2)cc1OC

Ans.
1: 4.14 µM (active); 2: 5.21 µM (active)

----------
- ASSAY_PROTOCOL: Acumen qHTS Assay for Inhibitors of the mTORC1 Signaling Pathway in MEF (Tsc2-/-, p53-/-) Cells: Hit Validation;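 further: phospho-rpS6 Ser235/236 immunofluorescence normalized to propidium iodide cell count; nearly all actives have a fitted effect of over 65% in size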;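 on activity change, negative = inhibition: cells exposed to compound for 24 hours; plate controls were DMSO for no effect and 7.5 nM rapamycin control for full effect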
- CONDITION: Acumen imaging; at 37.3 µM (top of the series)
Records with an inconclusive call do not appear.
OBSERVATION_TYPE: activity change, negative = inhibition (%)
Answers are plain numbers, in %.

COc1ccc(S(=O)(=O)N(Cc2nc(-c3cccc(C)c3)no2)C2CCCCC2)cc1 : -16.2

Record activity change, negative = inhibition for all entries; do not skip any.
1. CCc1ccc(OCC(=O)Nc2ccc3oc(-c4ccc(OC)cc4)nc3c2)cc1
2. CCC(C(=O)N1CCN(c2cccc(C)c2C)CC1)n1nc(C)c2sc3ccccc3c2c1=O (stereo unspecified)
3. O=c1c(-c2cc(-c3ccc(F)cc3)nc3c2COc2ccc(Cl)cc2-3)coc2ccc(F)cc12
4. CCOC(=O)c1c(NC(=O)c2cc(CC)on2)sc(C(C)=O)c1C
5. COc1cc2c(cc1OC)n(CC(=O)c1ccc(F)cc1)c(=O)n1nc(CCn3nc(C)cc3C)nc21

Ans.
1. 7.33
2. -0.603
3. 7.23
4. 12
5. -5.74

----------
- ASSAY_PROTOCOL: Acumen qHTS Assay for Inhibitors of the mTORC1 Signaling Pathway in MEF (Tsc2-/-, p53-/-) Cells: Hit Validation;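 further: phospho-rpS6 Ser235/236 immunofluorescence normalized to propidium iodide cell count; nearly all actives have a fitted effect of over 65% in size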;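 on activity change, negative = inhibition: cells exposed to compound for 24 hours; plate controls were DMSO for no effect and 7.5 nM rapamycin control for full effect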
- CONDITION: Acumen imaging; at 37.3 µM (top of the series)
Results filed as inconclusive are left out.
Lab note: anything with activity change, negative = inhibition at or over -10% counts as 1 (yes); the rest go in 0 (no).

Examples with answers:
CCOc1cc(C2CC(=O)Nc3cc4c(cc32)OCCO4)ccc1O (centres undefined) : 1 (yes)
COc1cc(CNc2ccc3c(c2)ncn3C(C)C)cc(OC)c1OC : 0 (no)
COc1ccc(Oc2nc3c(C)cccn3c(=O)c2/C=C(\C#N)c2nc3ccccc3[nH]2)cc1 : 1 (yes)
CC1CCN(S(=O)(=O)c2ccc(C(=O)Nc3sc4c(c3C(N)=O)CC(C)(C)NC4(C)C)cc2)CC1 : 0 (no)

Qu. For this compound, is measured activity change, negative = inhibition -10% or higher? COc1ccc(C2CC(=O)c3c([nH]c(C(=O)OC4CCCCCC4)c3C)C2)cc1OC (centres undefined)
Ans. 1 (yes)

Qu. For this compound, is measured activity change, negative = inhibition -10% or higher? Cc1ccc(CN(Cc2cccn2-c2nnc(N3CCCC3=O)s2)C(=O)Nc2ccccc2C(F)(F)F)cc1
Ans. 0 (no)

Qu. For this compound, is measured activity change, negative = inhibition -10% or higher? COc1cccc(-c2nc(S(=O)(=O)c3ccc(Cl)cc3)c(NCc3ccccc3)o2)c1
Ans. 1 (yes)

Qu. For this compound, is measured activity change, negative = inhibition -10% or higher? CCOc1ccc(C(=O)Nc2ccc3nc4c(c(Nc5ccccc5OC)c3c2)CCCC4)cc1
Ans. 0 (no)
